Kindly supply the reported Stability Index values for the records listed here.
Biological target: T1, recombinant human Tau monomer, 2N4R isoform (amino acids 2-441) (human, UniProt P10636-8 2-441)
T1 construct: range 2-441; N-terminal His-tag removed with TEV protease; also called monomeric Tau
T1 sequence (P10636 other isoform, or with tags, fused parts or gaps limits assumed): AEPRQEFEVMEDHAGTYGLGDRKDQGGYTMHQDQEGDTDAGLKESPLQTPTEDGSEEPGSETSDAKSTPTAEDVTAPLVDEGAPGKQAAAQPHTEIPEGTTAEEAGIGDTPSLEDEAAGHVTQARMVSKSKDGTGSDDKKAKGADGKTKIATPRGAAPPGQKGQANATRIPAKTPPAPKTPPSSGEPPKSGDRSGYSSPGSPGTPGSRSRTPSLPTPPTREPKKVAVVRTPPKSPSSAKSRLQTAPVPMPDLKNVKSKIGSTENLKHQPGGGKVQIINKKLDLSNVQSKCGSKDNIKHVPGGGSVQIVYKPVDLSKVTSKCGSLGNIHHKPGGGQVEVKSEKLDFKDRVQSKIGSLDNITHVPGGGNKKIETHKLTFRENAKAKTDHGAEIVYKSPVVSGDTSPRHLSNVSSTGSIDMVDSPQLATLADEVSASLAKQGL
Assay: SPR; Normalized Rmax post-stress (2 weeks 40 C) / pre-stress
State the result as a value with its unit after it.

Ask: Request the reported Stability Index associated with hu37D3-H9.v31.10 (antibody, V domains shown) VH: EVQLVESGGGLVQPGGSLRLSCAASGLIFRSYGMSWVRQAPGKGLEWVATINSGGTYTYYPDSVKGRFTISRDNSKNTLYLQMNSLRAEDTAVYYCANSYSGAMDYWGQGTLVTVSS VL: DDVLTQTPLSLPVTPGQPASISCRSSQSIVHSNANPYFEWYLQKPGQSPQLLIYKVSNRFSGVPDRFSGSGSGTDFTLKISRVEAEDVGVYYCFQGSLVPWTFGQGTKVEIK
Result: 261%

Ask: Request the reported Stability Index associated with hu37D3-H9.v5.2 (antibody, V domains shown) VH: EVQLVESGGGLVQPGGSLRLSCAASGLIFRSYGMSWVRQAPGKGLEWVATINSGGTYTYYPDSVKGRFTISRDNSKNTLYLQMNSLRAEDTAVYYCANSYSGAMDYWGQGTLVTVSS VL: EDVLTQTPLSLPVTPGQPASISCRSSQSIVHSSGNTYFEWYLQKPGQSPQLLIYKVSNRFSGVPDRFSGSGSGTDFTLKISRVEAEDVGVYYCFQGSLVPWTFGQGTKVEIK
Result: 97%

Ask: Request the reported Stability Index associated with hu37D3.v28.56 (antibody, V domains shown) VH: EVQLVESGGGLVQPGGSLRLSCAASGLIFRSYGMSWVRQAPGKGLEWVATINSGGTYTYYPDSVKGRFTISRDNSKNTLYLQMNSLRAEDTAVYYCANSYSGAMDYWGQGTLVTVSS VL: DDVLTQTPLSLPVTPGQPASISCRSSQSIVHSNYNTYFEWYLQKPGQSPQLLIYKVSNRFSGVPDRFSGSGSGTDFTLKISRVEAEDVGVYYCFQGSLVPWTFGQGTKVEIK
Result: 76%

Ask: Request the reported Stability Index associated with hu37D3.v28.57 (antibody, V domains shown) VH: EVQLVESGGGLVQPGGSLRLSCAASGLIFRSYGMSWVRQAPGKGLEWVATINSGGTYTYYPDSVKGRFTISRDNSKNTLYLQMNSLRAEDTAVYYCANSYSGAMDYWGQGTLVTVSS VL: DDVLTQTPLSLPVTPGQPASISCRSSQSIVHSNFNTYFEWYLQKPGQSPQLLIYKVSNRFSGVPDRFSGSGSGTDFTLKISRVEAEDVGVYYCFQGSLVPWTFGQGTKVEIK
Result: 88%

Ask: Request the reported Stability Index associated with hu37D3.v28.A6 (antibody, V domains shown) VH: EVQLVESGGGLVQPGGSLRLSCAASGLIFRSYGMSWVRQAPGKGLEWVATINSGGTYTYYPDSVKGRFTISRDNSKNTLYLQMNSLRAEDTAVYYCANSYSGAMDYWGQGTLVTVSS VL: DDVLTQTPLSLPVTPGQPASISCRSSQSIVHSNGNTYLEWYLQKPGQSPQLLIYKVSNRFSGVPDRFSGSGSGTDFTLKISRVEAEDVGVYYCFQGSHVPWTFGQGTKVEIK
Result: 82%
